# reported z-score; entries follow
# testProtocol: growth modulation of vineyard yeast isolate – strain RM11-1a, OD600, basal, 24 h, primary screen (AID 1177);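 further: cultures grown under basal conditions with no added stressor; test concentration not given here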
# measurementSetup: S. cerevisiae RM11-1a growth, OD600, 24 h; higher = more signal, called active from +8 up or from −8 down

givenSmiles: Cc1ccc(F)cc1S(=O)(=O)N[C@@H]1CCN(Cc2ccc(C(F)(F)F)cc2)C1
z-score: 0.338
//
givenSmiles: O=C(NCCN1CCOCC1)[C@@H]1c2ccccc2C(=O)N(Cc2cc(F)cc(C(F)(F)F)c2)[C@H]1c1ccc(CO)cc1
z-score: -0.64
//
givenSmiles: COC(=O)[C@@]1(Cc2ccc(F)cc2)[C@H]2c3cc(C(=O)N(C)C)n(CCCNc4ccc(C(F)(F)F)cc4Cl)c3C[C@H]2CN1C(=O)c1ccccc1
z-score: 0.482
//
givenSmiles: O=C(NCc1ccccc1)[C@@H]1c2ccccc2C(=O)N(C2CCCCC2)[C@H]1c1ccc(CO)cc1
z-score: 0.138
//
givenSmiles: CC(C)[C@H]1COC(=O)N1C(=O)[C@H]1[C@@H](c2ccccc2)N(c2ccccc2)O[C@@H]1C
z-score: 1.46
//
givenSmiles: C#C[C@H]1Oc2ccccc2S(=O)(=O)N2CCC[C@@H]12
z-score: -0.0887
//
givenSmiles: [N-]=[N+]=NCc1ccccc1[C@@H]1OC(c2ccc(OCCCO)cc2)=N[C@]1(Cc1ccccc1N=[N+]=[N-])C(N)=O
z-score: 0.604
//
givenSmiles: C=CCN1Cc2ccccc2C[C@@]2(COC(c3ccc(OCCCO)cc3)=N2)C1=O
z-score: 1.04

----------
# testProtocol: small molecules captured by biotinylated probe aFST – biochemical, small-molecule microarray, fluorescence 635/667, stem cell growth factor project, primary screen (AID 1086);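 further: score merges 667 nm fluorescence with signal-to-noise of each printed compound spot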
# measurementSetup: higher = more signal
# reported composite z-score; entries follow

compound: CCOC(=O)C=Cc1cccc(OC)c1O
composite z-score: -0.722
--
compound: O=C1O[C@@H](c2ccccc2)[C@@H](c2ccccc2)N2[C@@H](c3ccc(O)cc3)[C@]3(C(=O)Nc4ccc(C#CCCO)cc43)[C@@H](C(=O)N3CCCCCCC3)[C@H]12
composite z-score: 2.57
--
compound: O=C(NCC(O)CO)[C@]1(CCS(=O)(=O)c2ccccc2)N=C(c2ccc(OCCCO)cc2)O[C@@H]1c1ccccc1 (some centres undefined)
composite z-score: 1.08
--
compound: O=C1C2C=CC(C(O)c3ccccn3)N(Nc3ccccc3F)C2C(=O)N1c1ccccc1 (centres undefined)
composite z-score: 0.19
--
compound: COCCn1c(C(=O)N2CCCC2)cc2c1C[C@H]1CN(C(=O)c3ccccc3)[C@@](Cc3ccc(OC)cc3)(C(=O)OC)[C@@H]21
composite z-score: 0.602
--
compound: O=P(NCC1(CC2(c3ccccc3)CO2)CC1)(c1ccccc1)c1ccccc1 (centres undefined)
composite z-score: -0.0087
--
compound: NC(=O)NCC#Cc1ccc2c(c1)[C@]1(C(=O)N2)[C@H](C(=O)NC[C@H](O)c2ccccc2)[C@H]2C(=O)O[C@H](c3ccccc3)[C@H](c3ccccc3)N2[C@@H]1c1ccccc1OCCO
composite z-score: 0.213
--
compound: CC(C)C(CO)N1C(=O)[C@@H]2[C@H]3C(=O)OCC=C[C@H]3OC23C=CCN(c2ccc4ccccc4c2)C(=O)[C@@H]13 (some centres undefined)
composite z-score: -0.527
--
compound: CN1C(=O)C2C=CC(C(O)C=Cc3ccc([N+](=O)[O-])cc3)N(N3CCCCC3)C2C1=O (centres undefined)
composite z-score: 2.23
--
compound: CN1C(=O)C2C(C1=O)C1C=C(c3ccc(CO)cc3)C2C(C2CC2)N1Cc1sc2ccccc2c1Cl (centres undefined)
composite z-score: 0.391
--
compound: CCN(CC)c1ccc(N2CC=CC34O[C@@H]5C=CCOC(=O)[C@@H]5[C@H]3C(=O)N(CCCCCO)[C@@H]4C2=O)cc1 (some centres undefined)
composite z-score: -0.409
--
compound: C[N+](C)(C)CCCC[C@@H]1NC(=O)[C@H]2C[C@@H](C(=O)O)[C@@H](c3cccc(OCCO)c3)N2C1=O
composite z-score: 1.65
--
compound: C=CCC(OC(C)=O)[C@@H]1[C@@H](N(Cc2cc3ccccc3o2)C(=O)c2ccc(C)cc2)c2cc(OCCCO)ccc2N1C(=O)c1ccc(-c2ccccc2)cc1 (some centres undefined)
composite z-score: -0.21
--
compound: COC(=O)[C@@]1(Cc2ccc(OC)cc2)[C@H]2c3cc(C(=O)N4CCCC4)n(CCN4CCOCC4)c3C[C@H]2CN1C(=O)c1ccccc1
composite z-score: 2.71
--
compound: O=C1C[C@@](C(=O)O)(c2ccc([N+](=O)[O-])cc2)[C@@H](c2ccc(CO)cc2I)N1CC12CC3CC(CC(C3)C1)C2
composite z-score: 0.806
--
compound: O=C1C2C=CC(C(O)c3ccc(B(O)O)cc3)N(Nc3ccc([N+](=O)[O-])cc3)C2C(=O)N1c1ccccc1 (centres undefined)
composite z-score: 1.25
--
compound: CCCCCCCCCCC(O)C1C=CC2C(=O)N(c3ccccc3)C(=O)C2N1Nc1ccc([N+](=O)[O-])cc1 (centres undefined)
composite z-score: 0.574
--
compound: C=C(C)[C@@H]1CC=C(C(O)C2C=CC3C(=O)N(Cc4ccccc4)C(=O)C3N2n2cnnc2)CC1 (some centres undefined)
composite z-score: 0.325
--
compound: CN1C(=O)C2C=CC(C(O)c3ccccc3)N(NC(=O)OC(C)(C)C)C2C1=O (centres undefined)
composite z-score: 0.868
--
compound: C[N+](C)(C)CCCC[C@@H]1NC(=O)[C@@H]2C[C@H](C(=O)NCCCCCCNC(=O)CS)[C@H](c3cccc(OCCO)c3)N2C1=O
composite z-score: -0.713
--
compound: COc1ccc(C(=O)Nc2cccc(CN3C(=O)[C@@]4(O[C@@H](CC(=O)N5Cc6ccccc6C[C@H]5CO)[C@H]([Si](C)(C)c5ccc(OC)cc5)[C@H]4C)c4ccccc43)c2)cc1
composite z-score: 0.349
--
compound: CC(=O)NCCCC[C@@H]1NC(=O)[C@@H]2C[C@H](C(=O)NCCCCCC[N+](C)(C)C)[C@H](c3cccc(OCCO)c3)N2C1=O
composite z-score: 0.715
--
compound: COC(=O)[C@@]1(Cc2ccc(F)cc2)[C@H]2c3cc(C(=O)N(C)C)n(Cc4ccccn4)c3C[C@H]2CN1C(=O)c1ccccc1
composite z-score: 1.55
--
compound: [N-]=[N+]=Nc1ccccc1[C@@H]1OC(c2ccc(OCCCO)cc2)=N[C@]1(CCS(=O)(=O)c1ccccc1)C(=O)N1CCCCC1
composite z-score: 1.18
--
compound: O=C(NCC(F)(F)F)[C@@H]1c2ccccc2C(=O)N(Cc2ccccc2)[C@H]1c1ccc(CO)cc1
composite z-score: -0.419
--
compound: CC(C)[C@H]1COC(=O)N1C(=O)[C@H]1[C@@H](c2ccccc2)N(c2ccccc2)O[C@@H]1C
composite z-score: 0.301
--
compound: CN1C(=O)C2C=CC(C(O)C3=C[C@H]4C[C@@H](C3)C4(C)C)N(Nc3ccc([N+](=O)[O-])cc3[N+](=O)[O-])C2C1=O (some centres undefined)
composite z-score: 0.642
--
compound: [N-]=[N+]=Nc1ccccc1[C@H]1OC(c2ccc(OCCCO)cc2)=N[C@@]1(CCS(=O)(=O)c1ccccc1)C(=O)N1CCOCC1
composite z-score: 1.53
--
compound: C=C(CCCC)C(=O)CC[C@H](OC(=O)c1ccccc1-c1ccccc1C(=O)O)c1ccc(CO)o1
composite z-score: 0.367
